B1: WDFY2 (parent)
chain: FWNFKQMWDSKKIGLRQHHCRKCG

Variants of: B1
Test: protein stability index of a GFP-peptide fusion (GPS, HEK-293T) (PSI 1-6); higher = more stable;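 note: lentivirally expressed fusions sorted by FACS into six bins by GFP to DsRed ratio, PSI derived from sequencing read proportions per bin multiplied by bin number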
Details: c terminus: a fixed tail appended
Metric name: protein stability index
Please give only the number in your answer, with no unit.

**Query** Which value of protein stability index has been reported for D9H in the records?
**Result** 2.63

**Query** // repeat for G24F and report
**Result** 1.23

**Query** And for F4N ?
**Result** 2.29

**Query** // repeat for Q17F and report
**Result** 1.35

**Query** Also need C20A , thanks.
**Result** 1.82

**Query** Again, but for K5L
**Result** 1.83

**Query** What would you report for Q17W ?
**Result** 1.82

**Query** Now give it for K12H too.
**Result** 2.01

**Query** Follow-up entry: H19D
**Result** 2.11

**Query** Same for C23P
**Result** 2.16

**Query** Okay, and H19T ?
**Result** 1.72

**Query** Moving on to the next variant: W2V
**Result** 3.04

**Query** Proceed to K22M
**Result** 1.8
